Target: T1, Human CD137 ECD (human)
T1 construct: also called 4-1BB
T1 sequence (chain, as listed by the source limits assumed): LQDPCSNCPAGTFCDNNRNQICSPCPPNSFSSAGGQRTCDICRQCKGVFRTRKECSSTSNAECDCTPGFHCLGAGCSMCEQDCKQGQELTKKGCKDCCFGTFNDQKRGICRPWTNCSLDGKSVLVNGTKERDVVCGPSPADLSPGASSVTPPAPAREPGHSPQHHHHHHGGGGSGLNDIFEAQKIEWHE
Assay: SPR, vs parent H183/L072
Measured Parameter: fold change of affinity (fold)
// return numeric value only (unit: fold, not printed)

Worked set:
Binder	fold change of affinity [fold]
dBBDu183H G65S / dBBDu072L (antibody, name in Kabat numbering, V domains shown, as m1, one VH change) VH: QVQLVESGGGLVQPGRSLRLSCAASGFTFSNAWMHWVRQAPGKGLEWVAQIKDKGNAYAAYYAPSVKSRFTISRDDSKNSIYLQMNSLKTEDTAVYYCHYVHYASASTVLPAFGVDAWGQGTTVTVSS VL: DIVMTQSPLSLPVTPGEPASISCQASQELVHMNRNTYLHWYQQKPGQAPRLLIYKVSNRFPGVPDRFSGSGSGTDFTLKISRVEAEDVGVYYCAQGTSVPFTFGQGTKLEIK	1.2
dBBDu183H S62R / dBBDu072L (antibody, name in Kabat numbering, V domains shown, as m1, one VH change) VH: QVQLVESGGGLVQPGRSLRLSCAASGFTFSNAWMHWVRQAPGKGLEWVAQIKDKGNAYAAYYAPRVKGRFTISRDDSKNSIYLQMNSLKTEDTAVYYCHYVHYASASTVLPAFGVDAWGQGTTVTVSS VL: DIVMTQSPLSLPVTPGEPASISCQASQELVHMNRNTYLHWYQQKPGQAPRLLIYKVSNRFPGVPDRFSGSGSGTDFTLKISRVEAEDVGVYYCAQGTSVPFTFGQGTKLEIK	1.1

Problem: Form field: reported fold change of affinity of dBBDu183H K64T / dBBDu072L (antibody, name in Kabat numbering, V domains shown, as m1, one VH change) VH: QVQLVESGGGLVQPGRSLRLSCAASGFTFSNAWMHWVRQAPGKGLEWVAQIKDKGNAYAAYYAPSVTGRFTISRDDSKNSIYLQMNSLKTEDTAVYYCHYVHYASASTVLPAFGVDAWGQGTTVTVSS VL: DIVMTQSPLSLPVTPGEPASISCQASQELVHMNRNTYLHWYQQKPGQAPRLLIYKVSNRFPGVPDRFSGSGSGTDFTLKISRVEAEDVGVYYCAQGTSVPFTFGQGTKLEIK
Result: 1.1
